Tested on: RSV Long strain
Test: Viral cytopathic effect (CPE) assay, anti-RSV activity
Format: cell-based, Respiratory Syncytial Virus
Conditions: human respiratory syncytial virus, 144 h, RSV Long strain (ATCC); cell viability after 6 days, Cell Counting kit-8
outcomeMeasure: EC50 (µM)

molecule	quantityUnit	testResult
NC1(CNc2nc(N3CCSc4ccccc4C3)nc3ccccc23)COC1	µM	0.067
Cc1ccc2nc(N3CCS(=O)(=O)c4ccccc4C3)cc(N[C@@H]3CCOC3)c2c1	µM	0.099
Cc1ccc2nc(N3CCS(=O)(=O)c4ccc(N5CCN(C(C)C)CC5)cc4C3)cc(NCC3(N)COC3)c2c1	µM	0.627
NCCCNc1cc(N2CCS(=O)(=O)c3ccccc3C2)nc2ccc(OC(F)F)cc12	µM	2.17
[2H]C([2H])([2H])c1ccc2nc(N3CC[S+]([O-])c4ccccc4C3)nc(NCC3(CN)COC3)c2c1 (centres unmarked)	µM	0.001

1 = Cc1ccc2nc(N3CCS(=O)(=O)c4ccccc4C3)cc(NC[C@@H](N)CO)c2c1
2 = Cc1ccc2nc(N3CCS(=O)(=O)c4ccccc4C3)cc(NCC3COC3)c2c1
3 = NCCCNc1cc(N2CCS(=O)(=O)c3ccccc3C2)nc2cccc(Cl)c12
Arrange the 3 molecules by rising EC50, starting with the smallest. Provide the ranking by listing each label in its place in the requested order.
1, 2, 3
(1: 0.043 µM, 2: 0.261 µM, 3: 0.701 µM)

###

System: RSV Long strain
Experiment: Viral cytopathic effect (CPE) assay, anti-RSV activity
Format: cell-based, Respiratory Syncytial Virus
Settings: human respiratory syncytial virus, 144 h, RSV Long strain (ATCC); cell viability after 6 days, Cell Counting kit-8
outcomeMeasure: EC50 (µM)

Known EC50 results, listed for orientation:
molecule	EC50 (µM)
Cc1ccc2nc(N3CCS(=O)(=O)c4ccccc4C3)cc(NC(=O)Cc3ccccn3)c2c1	2.31
Cc1ccc2nc(N3CC[S+]([O-])c4ccccc4C3)cc(NCCN)c2c1 (centres unmarked)	0.011
Cc1ccc2nc(N3CC[S+]([O-])c4ccccc4C3)nc(N3C[C@@H](N)[C@H](F)C3)c2c1 (relative stereo)	0.186
Cc1ccc2nc(N3CCS(=O)(=O)c4ccccc4C3)cc(NC[C@H](C)N)c2c1	0.022
Cc1ccc2nc(N3CCCc4ccccc4C3)cc(NCCN)c2c1	0.063

I = Cc1ccc2nc(N3CCS(=O)(=O)c4cc(F)ccc4C3)cc(NCC3(N)COC3)c2c1
II = Cc1ccc2nc(N3CCS(=O)(=O)c4ccccc4C3)cc(NCCN3CCCCC3)c2c1
Could you point out whether the larger EC50 belongs to I or to II ? Reply with the label of the item you choose.
II
(II: 0.275 µM, I: 0.007 µM)

###

System: RSV Long strain
Assay: Viral cytopathic effect (CPE) assay, anti-RSV activity
Assay type: cell-based, Respiratory Syncytial Virus
Details: human respiratory syncytial virus, 144 h, RSV Long strain (ATCC); cell viability after 6 days, Cell Counting kit-8
outcomeMeasure: EC50 (µM)

compound	measuredOn	quantityUnit	testResult
Cc1ccc2nc(N3CCS(=O)(=O)c4ccccc4C3)cc(NCCC3(N)CC3)c2c1 [Example 20-3]	RSV Long strain	µM	0.093
Cc1ccc2nc(N3CCS(=O)(=O)c4ccccc4C3)cc(NCC3CNCCO3)c2c1 (centres unmarked) [Example 21-1]	RSV Long strain	µM	0.023

a = Cc1ccc2nc(N3CCS(=N)(=O)c4ccccc4C3)cc(N3CC(N)C(O)C3)c2c1 (centres unmarked) [Example 78-1]
b = Cc1ccc2nc(N3CCC(F)(F)c4ccccc4C3)cc(NCCN)c2c1 [Example 111-6]
c = Cc1ccc2nc(N3CCC(F)(F)c4ccccc4C3)cc(N3CCNCC3)c2c1 [Example 111-1]
d = Cc1ccc2nc(N3CCS(=O)(=O)c4ccccc4C3)cc(NCC3(N)COC3)c2c1 [Example 2-2]
e = NC1(CNc2cc(N3CCSc4ccccc4C3)nc3ccc(Cl)cc23)COC1 [Example 4-1]
Highest EC50 first, then in falling order down to the smallest. Provide the ranking by listing each label in its place in the requested order.
c, e, b, a, d

P = NCC(F)(F)CNc1cc(N2CC[S+]([O-])c3ccccc3C2)nc2ccc(Cl)cc12 (centres unmarked) [Example 18-6]
Q = Cc1ccc2nc(N3CCS(=O)(=O)c4ccccc4C3)cc(NCCCNC3COC3)c2c1 [Example 45-1]
R = Cc1ccc2nc(N3CCS(=O)(=O)c4ccccc4C3)cc(N3CC(N)C4(COC4)C3)c2c1 (centres unmarked) [Example 23]
S = NCC1(CNc2cc(N3CCS(=O)(=O)c4ccccc4C3)nc3ccc(CO)cc23)COC1 [Example 106]
Arrange the 4 compounds by rising EC50, starting with the smallest. Provide the ranking by listing each label in its place in the requested order.
S, Q, P, R

P = Cc1ccc2nc(N3CCC(F)(F)c4ccccc4C3)cc(NCC(C)N)c2c1 (centres unmarked) [Example 110-8]
Q = NCCNc1cc(N2CCCc3ccccc3C2)nc2ccc(F)cc12 [Example 118-21]
Could you point out whether the larger EC50 belongs to P or to Q ? Reply with the label of the item you choose.
Q

A = Cc1ccc2nc(N3CCC(F)(F)c4ccccc4C3)cc(N(C)CCN)c2c1 [Example 111-3]
B = Cc1ccc2nc(N3CCS(=O)(=O)c4ccccc4C3)cc(NCC3(N)CCC3)c2c1 [Example 3-54]
Could you point out whether the larger EC50 belongs to A or to B ? Reply with the label of the item you choose.
B
(B: 0.114 µM, A: 0.0768 µM)

I = NCC1(CNc2cc(N3CCS(=O)(=O)c4ccccc4C3)nc3ccc(Cl)cc23)COC1 [Example 3-51]
II = NCCCNc1cc(N2CCS(=O)(=O)c3ccccc3C2)nc2cc(Cl)ccc12 [Example 9-11]
I'm curious, which of these has a smaller EC50 number: I or II ? Reply with the label of the item you choose.
I
(I: 0.004 µM, II: 0.953 µM)
